- run-description: NCI Yeast Anticancer Drug Screen. Data for the rad50 strain (AID 155);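 also: 0% = growth of vehicle-only cultures of the same strain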
- measurement-parameters: S. cerevisiae rad50 strain growth inhibition; at 50.0 µM
- Protocol: Growth inhibition of yeast strains with defined genetic alterations is measured as a screen for potential anti-cancer activity. Selected strains with alterations in DNA damage repair or cell cycle control were exposed to compounds and growth inhibition was measured relative to vehicle treated controls. The strain used in this assay is rad50
Compounds without any hit were thinned out: in the full panel of roughly 79,000, 15% have a hit. Active and inactive are the calls of the source. Rule as the data show it: active = growth inhibition above about 70%; inactive = the rest.
# valid calls are 1 (active), 0 (inactive); nothing else

Input: Test call for this compound, please: CCCCCCCCCCCCCCC(C(=O)O)S(=O)(=O)O (stereo not drawn)
Output: 1

Input: Record request — test call for NNC(=O)c1ccc(N)cc1O
Output: 0

Input: Record lookup: outcome of this test for CN(C)CCC(=O)N1C/C(=C\c2ccc(Cl)c(Cl)c2)C(=O)/C(=C/c2ccc(Cl)c(Cl)c2)C1 ?
Output: 1

Input: // return assay outcome for Cc1c(N)nc(C2CC(=O)N2CC(N)C(N)=O)nc1C(=O)NC(C(=O)NC(C)C(O)C(C)C(=O)NC(C(=O)NCCc1nc(-c2nc(C(=O)NCCCNC3CCCC3)cs2)cs1)C(C)O)C(OC1OC(CO)C(O)C(O)C1OC1OC(CO)C(O)C(OC(N)=O)C1O)c1cnc[nH]1 (stereo not drawn)
Output: 1

Input: What did this assay record as the result for N#CC1(C#N)C2C=CC(c3coc4cccc2c34)C1(C#N)C#N (stereo not drawn) ?
Output: 0

Input: Please share the test call associated with C=C1C(=O)OC2CC(C)C3C=CC(=O)C3CC12 (stereo not drawn) .
Output: 1

Input: Per the records of this test, what outcome belongs to O=C(CC(O)c1ccccc1)Sc1ccccc1 (stereo not drawn) ?
Output: 1

Input: So what was the verdict on CC(=O)Oc1cc2c(=O)oc3c(OC(C)=O)c(OC(C)=O)c(OC(C)=O)c4c(=O)oc(c1OC(C)=O)c2c34 in this test?
Output: 1

Input: I'd appreciate the recorded outcome for Cc1ccc(NC(=O)CC2SC(=Nc3ccc(Cl)cc3)NC2=O)cc1C (stereo not drawn) from this test.
Output: 1

Input: Test call, this compound: CCCCCCCCCCCCCCCC(=O)N1CC[N+](C)(CC2=CC3(Cl)C(Cl)=C(Cl)C2(Cl)C3(Cl)Cl)CC1 (stereo not drawn)
Output: 1

Input: Answer briefly: the call reported for O=C(Nc1ccc(Br)cc1)Oc1ccccc1C(=O)Nc1ccccc1 in this assay.
Output: 1

Input: Outcome? C(/C=C/CC=Nc1ccccc1)=Nc1ccccc1
Output: 0

Input: # lookup: test call for C/C(CCC(=O)O)=N/Nc1ccc(C(=O)O)cc1
Output: 0

Input: Dear colleague, could you share the recorded outcome for CCCCCCC(=O)CCCCCC/C=C\CC1OC(=O)C(N)(CO)C1O (stereo not drawn) when you have a moment?
Output: 1

Input: Called result for CN(C)c1cc[c]([Sn]([c]2ccc(N(C)C)cc2)([c]2ccc(N(C)C)cc2)[c]2ccc(N(C)C)cc2)cc1
Output: 1

Input: Tell me the recorded outcome of this test for CCOC(=O)CCC(=O)Oc1ccc2c(c1OC(=O)CCC(=O)OCC)C(=O)c1ccccc1C2=O .
Output: 1

Input: Given N#C/C(=C\C(Cl)=C/c1ccccc1)C(N)=S , state the outcome it received in this test.
Output: 0

Input: What is the recorded call for this compound in the test? O=[N+]([O-])c1cc(F)c(Sc2cc(Br)c([N+](=O)[O-])cc2F)cc1Br
Output: 0
